The values you see were collected from ChEMBL document CHEMBL2331419.

# test.name: Permeability across human Caco2 cells
# Type: ADME, cell-based
# run.conditions: Caco-2, read-out: permeability
reported.metric: Papp
Express the reported value numerically, then name its unit.

Ask: Papp lookup needed for `O=C(NCCC1CC1)c1ccc2nc(-c3ccc(Oc4ccccc4Cl)cc3)[nH]c2c1` , thanks.
Result: 16.7 ×10⁻⁶ cm/s

Ask: Similarly, `O=C(NCc1ccc(Cl)s1)c1ccc2[nH]c(-c3ccc(C(=O)c4ccccc4C(F)(F)F)cc3)nc2c1` ?
Result: 5.26 ×10⁻⁶ cm/s

Ask: Similarly, `O=C(NCc1ccc(Cl)s1)c1ccc2nc(-c3ccc(Oc4ccccc4Cl)cc3)[nH]c2c1` ?
Result: 11.4 ×10⁻⁶ cm/s

Ask: Similarly, OC(c1ccc2[nH]c(-c3ccc(OCc4ccccc4)cc3)nc2c1)c1ccccc1C(F)(F)F (racemic) ?
Result: 18.2 ×10⁻⁶ cm/s

Ask: Similarly, `O=C(NCc1nccs1)c1ccc2nc(-c3ccc(Oc4ccccc4Cl)cc3)[nH]c2c1` ?
Result: 6.36 ×10⁻⁶ cm/s
